# target-or-system: T1, hHER3 full length (human, UniProt P21860 20-1342)
# T1 construct: On transfected CHO, CHO HER2/HER3, CHO EGFR/HER3 or CHO Flp-In cells; endogenous HER3 of MCF-7 and MDA-MB468 cells in the signalling assays; also called human HER3
# test-method-notes: FACS, 400 nM, competitor 23F05-biotin
reported-property: % competition (%)
Report only the number, with the unit % understood.

Entry under review: 17B05 (VHH, also called HER3MS17B05; HER3MS017B05) VHH: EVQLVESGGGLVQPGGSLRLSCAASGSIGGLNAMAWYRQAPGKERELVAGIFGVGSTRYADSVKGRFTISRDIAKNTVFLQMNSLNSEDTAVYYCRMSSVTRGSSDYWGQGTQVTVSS . Reported % competition?
0

Record request: % competition value, item 21B02 (VHH) VHH: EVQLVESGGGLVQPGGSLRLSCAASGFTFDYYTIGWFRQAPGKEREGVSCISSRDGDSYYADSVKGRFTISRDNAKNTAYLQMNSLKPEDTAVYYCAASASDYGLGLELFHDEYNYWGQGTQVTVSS
98

What value of % competition has been reported for the following binder? 17C08 (VHH, also called 17C8) VHH: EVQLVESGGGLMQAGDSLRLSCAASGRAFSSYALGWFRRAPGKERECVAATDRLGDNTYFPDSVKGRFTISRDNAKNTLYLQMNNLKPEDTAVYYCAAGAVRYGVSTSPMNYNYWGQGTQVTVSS
17

May I ask what % competition has been recorded for 34C07 (VHH, c-myc, His6-tagged form as expressed; also called 34C7; HER3MS34C07) VHH: EVQLVESGGGLVQPGGSLGLSCVASGSIFRINAMAWYRQAPGKQRELVAEITAGGSTNYADSVKGRFTISVDNAWNTLYLQMNSLKVEDTAVYYCNLDHYTTWDRRSAYWGQGTQVTVSS ?
10

// query % competition value for entry 34A04 (VHH) VHH: EVQLVESGGGLVQAGGSLRLSCAASGFTFDDYTIGWFRQAPGKEREEISCISNNDGSTYYTNSVKGRFTISSDNAKNTVYLQMNSLKPEDTAVYYCAASPHGCWYDLIPLQADFGSWGQGTQVTVSS
97

Requested read-out: % competition. Entry: 18E08 (VHH) VHH: EVQLVESGGGLVQPGGSLRLSCAASGTLFKINAMGWYRQAPGKQRELVALITSSDTTDYAESVEGRFTISRDNTWNAVYLQMNSLKPEDTAVYYCHSDHYSMGVPEKRVIMYGQGTQVTVSS
0

Values were extracted from patent US20130136748A1.
